// reported pKd per item
system.name: low-density lipoprotein receptor-related protein 1 (LRP-1), human (human)
Sequence (Q07954 20-3943, chain 1 of 2): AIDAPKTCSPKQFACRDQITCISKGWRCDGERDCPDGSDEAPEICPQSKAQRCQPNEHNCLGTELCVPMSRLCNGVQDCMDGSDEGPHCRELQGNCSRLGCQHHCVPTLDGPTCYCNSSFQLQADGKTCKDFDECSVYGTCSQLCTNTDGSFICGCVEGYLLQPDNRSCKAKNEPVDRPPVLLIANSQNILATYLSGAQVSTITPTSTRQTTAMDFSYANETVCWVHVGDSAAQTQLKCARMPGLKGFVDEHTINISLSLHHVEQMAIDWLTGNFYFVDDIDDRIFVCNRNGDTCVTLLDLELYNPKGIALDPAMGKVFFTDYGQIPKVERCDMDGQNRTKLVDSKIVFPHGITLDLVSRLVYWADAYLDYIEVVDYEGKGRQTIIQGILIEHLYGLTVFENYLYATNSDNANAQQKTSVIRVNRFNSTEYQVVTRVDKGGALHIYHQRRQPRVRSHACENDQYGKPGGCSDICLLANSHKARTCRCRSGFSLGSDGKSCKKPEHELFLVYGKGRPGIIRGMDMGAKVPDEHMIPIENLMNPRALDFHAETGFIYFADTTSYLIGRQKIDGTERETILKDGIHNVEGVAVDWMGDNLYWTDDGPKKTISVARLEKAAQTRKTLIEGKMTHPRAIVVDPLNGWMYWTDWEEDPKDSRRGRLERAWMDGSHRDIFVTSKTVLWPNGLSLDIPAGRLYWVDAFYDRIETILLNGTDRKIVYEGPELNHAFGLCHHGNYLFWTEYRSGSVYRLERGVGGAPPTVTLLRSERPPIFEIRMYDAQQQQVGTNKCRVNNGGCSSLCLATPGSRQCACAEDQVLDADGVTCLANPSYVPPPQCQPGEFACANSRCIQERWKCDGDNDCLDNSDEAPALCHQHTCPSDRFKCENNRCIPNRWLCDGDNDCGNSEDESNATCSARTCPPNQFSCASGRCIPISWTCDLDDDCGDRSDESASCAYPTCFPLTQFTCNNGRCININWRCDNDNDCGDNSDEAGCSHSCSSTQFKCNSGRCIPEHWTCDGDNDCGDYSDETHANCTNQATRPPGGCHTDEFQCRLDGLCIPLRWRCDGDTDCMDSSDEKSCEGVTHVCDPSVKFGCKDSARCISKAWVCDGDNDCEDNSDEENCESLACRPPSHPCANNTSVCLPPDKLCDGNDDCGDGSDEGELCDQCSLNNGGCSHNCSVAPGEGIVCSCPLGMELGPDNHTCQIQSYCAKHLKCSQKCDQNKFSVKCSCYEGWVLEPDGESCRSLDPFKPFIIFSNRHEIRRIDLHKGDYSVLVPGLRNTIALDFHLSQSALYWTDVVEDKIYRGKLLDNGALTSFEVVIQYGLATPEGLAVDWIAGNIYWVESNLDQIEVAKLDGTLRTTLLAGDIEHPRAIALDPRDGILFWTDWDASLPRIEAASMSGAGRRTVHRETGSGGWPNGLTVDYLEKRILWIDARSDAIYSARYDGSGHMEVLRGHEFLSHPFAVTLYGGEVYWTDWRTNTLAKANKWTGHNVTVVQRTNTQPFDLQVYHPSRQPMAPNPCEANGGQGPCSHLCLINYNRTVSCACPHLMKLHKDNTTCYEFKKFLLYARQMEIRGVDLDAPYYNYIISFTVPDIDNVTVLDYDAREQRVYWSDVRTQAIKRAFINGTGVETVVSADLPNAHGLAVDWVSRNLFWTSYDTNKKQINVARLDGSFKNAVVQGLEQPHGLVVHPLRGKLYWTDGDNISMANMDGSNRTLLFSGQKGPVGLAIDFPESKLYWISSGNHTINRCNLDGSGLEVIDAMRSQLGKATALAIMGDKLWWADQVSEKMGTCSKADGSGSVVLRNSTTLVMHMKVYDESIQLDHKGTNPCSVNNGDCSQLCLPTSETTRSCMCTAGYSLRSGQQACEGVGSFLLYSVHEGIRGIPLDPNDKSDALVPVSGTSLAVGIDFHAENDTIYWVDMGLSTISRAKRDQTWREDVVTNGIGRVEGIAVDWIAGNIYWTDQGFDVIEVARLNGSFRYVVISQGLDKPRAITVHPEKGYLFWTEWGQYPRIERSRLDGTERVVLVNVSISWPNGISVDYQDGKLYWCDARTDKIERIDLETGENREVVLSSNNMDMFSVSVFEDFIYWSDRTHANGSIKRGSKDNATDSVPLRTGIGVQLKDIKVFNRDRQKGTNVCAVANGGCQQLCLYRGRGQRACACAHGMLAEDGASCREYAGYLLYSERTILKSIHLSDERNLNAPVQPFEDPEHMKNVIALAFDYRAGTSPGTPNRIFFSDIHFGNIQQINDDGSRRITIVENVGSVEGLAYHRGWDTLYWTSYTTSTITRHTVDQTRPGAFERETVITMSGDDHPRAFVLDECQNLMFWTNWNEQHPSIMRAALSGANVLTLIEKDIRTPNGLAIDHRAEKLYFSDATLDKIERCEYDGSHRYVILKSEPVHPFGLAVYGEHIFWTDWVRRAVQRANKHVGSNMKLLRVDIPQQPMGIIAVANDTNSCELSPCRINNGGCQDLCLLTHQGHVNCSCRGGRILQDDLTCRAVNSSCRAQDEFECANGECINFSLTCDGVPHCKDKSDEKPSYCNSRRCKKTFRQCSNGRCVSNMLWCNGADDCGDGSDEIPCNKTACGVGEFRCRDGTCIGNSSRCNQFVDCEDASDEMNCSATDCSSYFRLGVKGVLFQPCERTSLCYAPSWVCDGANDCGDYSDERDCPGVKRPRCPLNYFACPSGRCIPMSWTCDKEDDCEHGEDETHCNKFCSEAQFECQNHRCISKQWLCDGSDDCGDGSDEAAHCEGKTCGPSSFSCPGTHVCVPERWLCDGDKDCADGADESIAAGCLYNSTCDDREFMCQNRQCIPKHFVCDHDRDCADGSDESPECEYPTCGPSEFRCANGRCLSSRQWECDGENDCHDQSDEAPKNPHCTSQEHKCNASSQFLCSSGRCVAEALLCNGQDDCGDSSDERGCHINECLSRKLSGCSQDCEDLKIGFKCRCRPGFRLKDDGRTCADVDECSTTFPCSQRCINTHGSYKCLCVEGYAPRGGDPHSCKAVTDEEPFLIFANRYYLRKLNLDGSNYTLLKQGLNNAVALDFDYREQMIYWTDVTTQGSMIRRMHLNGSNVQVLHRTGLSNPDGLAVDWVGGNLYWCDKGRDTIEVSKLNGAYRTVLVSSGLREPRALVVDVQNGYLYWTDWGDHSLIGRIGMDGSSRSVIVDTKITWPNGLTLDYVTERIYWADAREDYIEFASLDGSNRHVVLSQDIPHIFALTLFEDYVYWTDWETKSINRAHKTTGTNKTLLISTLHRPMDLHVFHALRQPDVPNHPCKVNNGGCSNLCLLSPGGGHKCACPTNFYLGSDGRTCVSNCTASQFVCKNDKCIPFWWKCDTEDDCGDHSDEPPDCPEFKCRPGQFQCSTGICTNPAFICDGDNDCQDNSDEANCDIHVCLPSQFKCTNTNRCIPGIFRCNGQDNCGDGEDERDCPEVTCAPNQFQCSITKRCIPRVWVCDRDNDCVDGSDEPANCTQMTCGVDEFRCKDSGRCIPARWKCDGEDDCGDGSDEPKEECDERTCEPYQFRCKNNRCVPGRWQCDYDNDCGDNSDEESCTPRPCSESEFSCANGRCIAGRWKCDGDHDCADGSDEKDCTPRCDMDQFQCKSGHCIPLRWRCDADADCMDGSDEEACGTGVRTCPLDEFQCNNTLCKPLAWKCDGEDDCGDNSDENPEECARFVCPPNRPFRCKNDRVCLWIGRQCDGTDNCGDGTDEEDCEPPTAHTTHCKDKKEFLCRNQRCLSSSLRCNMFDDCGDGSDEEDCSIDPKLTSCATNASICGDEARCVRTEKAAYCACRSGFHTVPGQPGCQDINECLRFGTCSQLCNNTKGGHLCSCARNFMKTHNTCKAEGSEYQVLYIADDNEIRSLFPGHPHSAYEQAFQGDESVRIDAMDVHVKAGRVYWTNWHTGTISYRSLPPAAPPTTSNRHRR
Sequence (Q07954 3944-4544, chain 2 of 2): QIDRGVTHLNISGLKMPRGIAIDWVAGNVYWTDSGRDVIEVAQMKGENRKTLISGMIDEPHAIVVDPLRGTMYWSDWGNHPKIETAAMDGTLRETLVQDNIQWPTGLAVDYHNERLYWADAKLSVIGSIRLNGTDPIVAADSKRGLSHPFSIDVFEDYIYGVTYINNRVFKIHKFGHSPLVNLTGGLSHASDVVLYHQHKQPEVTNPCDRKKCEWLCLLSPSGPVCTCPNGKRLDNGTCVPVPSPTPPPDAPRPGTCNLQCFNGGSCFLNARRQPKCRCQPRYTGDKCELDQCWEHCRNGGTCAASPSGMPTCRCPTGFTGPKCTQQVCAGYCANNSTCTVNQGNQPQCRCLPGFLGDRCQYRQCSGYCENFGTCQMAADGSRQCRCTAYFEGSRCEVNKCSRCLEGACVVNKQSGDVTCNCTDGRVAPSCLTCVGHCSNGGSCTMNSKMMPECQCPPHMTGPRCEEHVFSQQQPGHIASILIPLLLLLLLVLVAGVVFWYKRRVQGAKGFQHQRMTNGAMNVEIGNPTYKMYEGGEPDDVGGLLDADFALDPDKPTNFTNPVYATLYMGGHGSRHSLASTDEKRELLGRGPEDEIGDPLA
test.summary: SPR
Ends that are not written are not given here.
As a rule, pKd stands for the negative log10 of the concentration, concentration in M.

binder	pKd
GYRPVHNIRGHWAPGK-NH2 [GYR (peptide 2)]	7.00

// next item, pKd requested
Ask: For the binder shown here, FRCLVENRGDVPFVTRIR-NH2 [MTfp (peptide 1), peptide derived from melanotransferrin] , give the reported pKd.
Reply: 9.24
